System: methicillin resistant S. aureus Mu50 strain (S. aureus ATCC700699) biofilm
methodNotes: Biofilm susceptibility to vancomycin, combination treatment regimen (mature biofilm treated with compound plus vancomycin)
Format: cell-based
measurementParameters: compound 100 μM together with VAN 20 μg/ml on mature biofilm; compared to the untreated (negative) control
Experimental: The compounds were evaluated for their effect on biofilm susceptibility both under pre-treatment and combination treatment regimens. […] The number of surviving cells under each condition was compared to vancomycin treatment alone and was assessed by conventional plating. […] The number of surviving cells under each condition was compared to the untreated control biofilm and was assessed by conventional plating.
The following molecules are shown together with reported Combin. (100 μM): percentage Colony Forming Units (CFU's) per biofilm values.
valueType: Combin. (100 μM): percentage Colony Forming Units (CFU's) per biofilm (percentage)

INSERT INTO measurements (molecule, readoutvalue) VALUES
  ('O=C(NC[C@]1(O)CO[C@H](CNC(=O)c2ccccc2C(F)(F)F)[C@H]1O)c1ccccc1 [compound 175]', 34.85),
  ('O=C(NC[C@H]1OC[C@@](O)(CNC(=O)c2ccccc2)[C@@H]1O)c1ccc(C(F)(F)F)cc1 [compound 157]', 11.25),
  ('O=C(NC[C@]1(O)CO[C@H](CN2C(=O)c3ccccc3C2=O)[C@H]1O)c1ccnnc1 [compound 258]', 23.56),
  ('CC(=O)NC[C@H]1OC[C@@](O)(CNC(=O)c2ccccc2)[C@@H]1O [compound 225]', 27.38),
  ('O=C(NC[C@]1(O)CO[C@H](CNC(=O)C2CCCCC2)[C@H]1O)c1ccccc1 [compound 191]', 19.28),
  ('O=C(NC[C@]1(O)CO[C@H](CN2C(=O)c3ccc(Cl)cc3C2=O)[C@H]1O)c1ccccc1 [compound 227]', 61.81),
  ('O=C(NC[C@]1(O)CO[C@H](CNC(=O)c2cnc(Cl)cc2Cl)[C@H]1O)c1ccccc1 [compound 198]', 11.25),
  ('CC(C)S(=O)(=O)NC[C@H]1OC[C@@](O)(CNC(=O)c2ccccc2)[C@@H]1O [compound 213]', 32.67),
  ('COc1ccc(C(=O)NC[C@H]2OC[C@@](O)(CNC(=O)c3ccccc3)[C@@H]2O)cc1OC [compound 183]', 61.60),
  ('O=C(NC[C@H]1OC[C@@](O)(CNC(=O)c2ccccc2)[C@@H]1O)c1cccnc1 [compound 167]', 15.22);
